# ASSAY_NOTES: yeast display, Sf9 membrane polyspecificity reagent, FACS + sequencing; frameworks hold sequencing errors
EXPERIMENTAL_ENDPOINT: polyreactivity (PSR sort gate)

SEQUENCE_CHAIN | EXPERIMENTAL_ENDPOINT | TEST_VALUE
QVQLVESGGCLVQAGGSLRLSGAASGYTFFFNVMGWYRPAPGKERQMVAAISYSGGSTNYADSVKGRFTISRDNAKITVYLQINSLKPEDTAVYYCNARSVSRNGYQDDYWGQGTQVTVSS | polyreactivity (PSR sort gate) | low polyreactivity
QVQLVESGGGLVQAGGSLRLSCAASGFIFYNYDMGWYRQAPGKERELVAAITGGGSTNYADSVKGRFTISRDNAKNTVYLKMNSLKPEDTAVYYCAAEEGPPCYRYDYWGQGTQVTVSS | polyreactivity (PSR sort gate) | low polyreactivity
QVHLVESGGGLVQAGGSLRLSFAASGRISRIYTMVWYRPAPGKERELVAAITSRGGSTYYADSLKGRFTISRDNAKNTVYFQMNSLNPEDTAVYYCAAGTFWWGYRSKGDEYDYWGQGTKVTVSS | polyreactivity (PSR sort gate) | high polyreactivity
QVQLVESGGGLVQAGGSLRLSCAASGRTLSVYAMGWYRQAPGKERELVAAITWRGGSTYYADSVKGRFTISRDNAKNTVYLQMNSLKPEDTAVYYCAAEDYTYNGGGYEYWGQGTQVTVSS | polyreactivity (PSR sort gate) | low polyreactivity
QVQLVESGGGLVQAGGSLRLSCADSGRTFWSNAMGWYRQAPGKERELVARIDSTYYADSVKGRFTISRDNAKNTVYLQMNSLKPEDTAVYYCNADTIYYAGDFRYDYWGQGTQVTVSS | polyreactivity (PSR sort gate) | low polyreactivity
QVQLVESGGGLVQAGGSLRLSCAASGRTFLVYAMGWYRQAPGKDRELVAAISSDGSTHYADSVKGRFTISRDNAKKTVYLQMNSLHPEDTAVYYCARDYYAFSYLYDYWGQGTQVTVSS | polyreactivity (PSR sort gate) | low polyreactivity
QVQLVESGGGLVQAGRNLRLSCAASGRTFYNNVMGWYRQAPGKERELVAAIDWNDGSTYYADSVKGRFTISRDKAKNTVFLQMNSLKPEDTAVYYCAADAYGYGGDSWGQGTQVTVSS | polyreactivity (PSR sort gate) | low polyreactivity
QVQLVESGGGLVQAGGSLRLSCAASGSIFNSNAMGWYRPAPGKEREFVATITQTGSSTYYADSVKGRFTISRDNAKNTVYLQMNSLKPEETAVYYCAVDWILYEYEDDFWYRYDYWGQGTQVTVSS | polyreactivity (PSR sort gate) | low polyreactivity
QVQLVESGGGLVKAGGSLRLSCAASGRTFALYAMGWYRLAPGKERELVAGITFRGGSTYYADSVKGRFRISRDNAKNTVYLQMNSLKPEDTAVYYCAAERWRWYYSWTMDYWGQGTQVTVSS | polyreactivity (PSR sort gate) | high polyreactivity
QVQLVESGGGLVQAGGSLRLSCAASGRIFDGYAIGWYRQAPGKERELVAAISSRGGRTYYADSVKGRFTISRDNAKNTVYLQMNSLKPEDTAVYYCAAVDPYGEGDYWGQGTQVTVSS | polyreactivity (PSR sort gate) | low polyreactivity
QVHLVESGGGLVQAGCSLRLSCAASGYIFVRNAMGWYRQAPGKERELVAAISGSGGSTYYADSVKGRFTISRDNAKNTVYLQMNSLKPEDTAVYYCASDPYHWRWGWRHDYWGQGTQVTVSS | polyreactivity (PSR sort gate) | low polyreactivity
QVQLVESGGGLVQAGGSLRLSCAASGGIFGWYTMGWYRQAPGKERELVAAINFSGSRTYYADSVKGRFTISRDNAKNTVYLQMNSLKPEDTAVYYCNAVYHQFREEYWGQGTQVTVSS | polyreactivity (PSR sort gate) | high polyreactivity
QVQLVESGGGLVQAGGSLRLSCAASGSTYRYYDMGWYRQAPGKERELVAAITWSGGTTYYADSVKGRFTISRDNAKNTVYLQMNSLKPEDTAVYYCAADSVLTPYDYWGQGTQVTVSS | polyreactivity (PSR sort gate) | low polyreactivity
QVQLVESGGGLVQAGGSLRLSCASSGRTFPGNAMGWYRPAPGKERELVAAISWSGTRTYYADSVKGRFTISRDNAKNTVSLKMNSLKPEDTAVYSCNVVVKGAWDYYPYDYWGQGTQVTVSS | polyreactivity (PSR sort gate) | high polyreactivity
QVQLVESGGGLVQAGGSLRLSCAASGITFDHSAMGWYRQAPGKEREFVAAIDDIGGDTYYADSVKGRFTISRDNAKNTVYLQMNSLKPEDTAVDYCAADYGYYSRFYYWGQGTQVTVSS | polyreactivity (PSR sort gate) | low polyreactivity
QDQLVESGGGLVQAGGSLRLSCAASGRIFVYYVMGWYRQAPGKERELVAAITYSGGSTYYADSVKVRFTISRDNAKNTVYLQMNSLKPEDTAVYACNKVDAFGIVRLYYWGQGTQVTVSS | polyreactivity (PSR sort gate) | low polyreactivity
QVQLVESGGGLVQAGGSLRLSCAASGSTFKSYTMGWYRPAPGKERELVAAISGSGGRTYYADSVKGRFTISRDNAKNTVYLQMNSLKPEDTAVYYCAATGPYGFYWGQGTQVTVSS | polyreactivity (PSR sort gate) | high polyreactivity
QVQLVESSGGLVQAGGSLRLSCAHSGIIFYCYAMGCYRHSPGNLRELVAAISNNGGSTYPDSVKGRFTISRDNAKNTVYLQMNSLKPEDTAVYYGDAHPTGGVGFDAYYWGQGTQVTVSS | polyreactivity (PSR sort gate) | low polyreactivity
QVQLVESGGGLVQAGGSLRLSCAASGRIFAGNAMGWYRQAPGKERELVAVISKGGGRTYYADSVKGRFTFSRDNAKNTVYLQMNSLKPEDTAVYYCAVRTLQRGKHDLGVDYWGQGTHVTVSS | polyreactivity (PSR sort gate) | high polyreactivity
QVQHVESGGGLVQAGGSLRLSCAASGSTFGWYAMGWYRQAPGKERELVAAITRRGTRTYYADSVKGRFTISRDNAKNTVYLQMNSLKPEDTAVYYCNARGFPGKFGYWGQGTQVTVSS | polyreactivity (PSR sort gate) | high polyreactivity
QVQLVETGGGLVQAGVSLRISCAASGRTFSVYTMGWYRQAPGKERELVAAIRGRGGSTYYADSVKGRFTISRDNAKNTVYLQMNSLKPEDTAVYYCAARASIFGATFDYWGQGTQVTVSS | polyreactivity (PSR sort gate) | high polyreactivity

Data origin: the nanobody polyreactivity screen of Harvey et al. (2022)
